Assay: Antiproliferative activity against human SJSA1 cells expressing wild type p53 after 72 hrs by CellTitre-Glo assay
Details: SJSA-1, 72 h
pIC50: −log10 of the molar value.
Binary classification by pIC50, with 6 as an inclusive lower bound for met; all other cases are not met.

1) CCC[C@@H]1N(C(=O)c2cnccc2C(F)(F)F)CCC[C@]1(Oc1ccc(C(F)(F)F)cc1)C(=O)N1CCN(c2ccccc2OCCO)CC1 (single isomer, unassigned): met
2) COc1ccc(C2=N[C@@H](c3ccc(Cl)cc3)[C@@H](c3ccc(Cl)cc3)N2C(=O)N2CCNC(=O)C2)c(OC(C)C)c1: not met
3) COc1ccccc1N1CCN(C(=O)C2(Oc3ccc(C(F)(F)F)cc3)CCCN(C(=O)c3cnccc3C(F)(F)F)C2)CC1 (stereo unspecified): not met

# next molecule below
Lookup: Does pIC50 meet or surpass 6 for CCC[C@H]1N(C(=O)c2cnccc2C(F)(F)F)CCC[C@@]1(Oc1csc(C(F)(F)F)c1)C(=O)N1CCN(c2ccccc2OC(C)(C)C(=O)O)CC1 ?
Found: met

* * *

Biological target: UniProtKB P08684
Sequence (P08684 whole entry): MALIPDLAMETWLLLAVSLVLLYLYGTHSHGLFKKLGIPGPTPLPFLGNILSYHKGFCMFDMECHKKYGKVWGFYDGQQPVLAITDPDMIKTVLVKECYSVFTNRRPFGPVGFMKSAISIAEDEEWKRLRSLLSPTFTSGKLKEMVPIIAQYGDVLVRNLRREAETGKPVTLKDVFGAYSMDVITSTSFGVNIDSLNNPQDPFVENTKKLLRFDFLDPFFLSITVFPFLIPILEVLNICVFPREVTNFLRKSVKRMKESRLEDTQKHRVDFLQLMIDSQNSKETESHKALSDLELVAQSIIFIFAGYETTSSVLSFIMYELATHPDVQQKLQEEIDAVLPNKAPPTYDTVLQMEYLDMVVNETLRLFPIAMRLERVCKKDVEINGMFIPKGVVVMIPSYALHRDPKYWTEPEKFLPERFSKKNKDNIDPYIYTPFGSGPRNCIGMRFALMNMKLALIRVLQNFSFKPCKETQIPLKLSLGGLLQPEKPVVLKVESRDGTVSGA
measured_attribute: IC50

Lookup: I have this compound here, CCC[C@H]1N(C(=O)c2cnccc2C(F)(F)F)CCC[C@@]1(Oc1csc(C(F)(F)F)c1)C(=O)N1CCN(c2ccccc2OCCCC(=O)O)CC1 , and I need its recorded IC50.
Found: > 50 µM

* * *

Test: Antiproliferative activity against human SJSA1 cells expressing wild type p53 after 72 hrs by CellTitre-Glo assay
Details: SJSA-1, 72 h
Hi there, I'd appreciate the recorded IC50 for every entry that follows.
Answers are plain numbers, in µM.

1. CCC[C@@H]1N(C(=O)c2cnccc2C(F)(F)F)CCC[C@]1(Oc1csc(C(F)(F)F)c1)C(=O)N1CCN(c2ccccc2OCC(=O)NC)CC1 (single isomer, unassigned): 0.11
2. CCC[C@@H]1N(C(=O)c2cnccc2C(F)(F)F)CCC[C@]1(Oc1csc(C(F)(F)F)c1)C(=O)N1CCN(c2ccccc2OCCO)CC1 (single isomer, unassigned): 0.18

Pending molecule:
Lookup: I have this molecule here, CCC[C@H]1N(C(=O)c2cnccc2C(F)(F)F)CCC[C@@]1(Oc1csc(C(F)(F)F)c1)C(=O)N1CCN(c2ccccc2OCCCC(=O)O)CC1 , and I need its recorded IC50.
Found: 0.08

* * *

Test: Fraction unbound in human plasma
Assay type: ADME, cell-free
measured_attribute: fraction unbound
Answers are plain numbers.

Lookup: I have this compound here, CCC[C@H]1N(C(=O)c2cnccc2C(F)(F)F)CCC[C@@]1(Oc1csc(C(F)(F)F)c1)C(=O)N1CCN(c2ccccc2OCCCC(=O)O)CC1 , and I need its recorded fraction unbound.
Found: 0.04

* * *

Test: Antiproliferative activity against human SJSA1 cells expressing wild type p53 after 72 hrs by CellTitre-Glo assay
Settings: SJSA-1, 72 h
Hi there, I'd appreciate the recorded IC50 for every entry that follows.
Answers are plain numbers, in nM.

1) CCC[C@H]1N(C(=O)c2cnccc2C(F)(F)F)CCC[C@@]1(Oc1csc(C(F)(F)F)c1)C(=O)N1CCN(c2ccccc2OCCCCC(=O)O)CC1: 170
2) CCC[C@H]1N(C(=O)c2cnccc2C(F)(F)F)CCC[C@@]1(Oc1csc(C(F)(F)F)c1)C(=O)N1CCN(c2ccccc2OCC(C)(C)O)CC1: 600

# batch: return IC50 for each of the 3 compounds below
1. CCC[C@H]1N(C(=O)c2cnccc2C(F)(F)F)CCC[C@@]1(Oc1csc(C(F)(F)F)c1)C(=O)N1CCN(c2ccccc2OCC(=O)O)CC1
2. CCC[C@@H]1N(C(=O)c2cnccc2C(F)(F)F)CCC[C@]1(Oc1csc(C(F)(F)F)c1)C(=O)N1CCN(c2ccccc2OCCC(C)(C)C(=O)O)CC1 (single isomer, unassigned)
3. CCC[C@H]1N(C(=O)c2cnccc2C(F)(F)F)CCC[C@@]1(Oc1csc(C(F)(F)F)c1)C(=O)N1CCN(c2ccccc2OCC(C)(C)C(=O)O)CC1

Found:
1. 1100
2. 280
3. 260

Lookup: I have this compound here, COCCOc1ccccc1N1CCN(C(=O)[C@]2(Oc3ccc(C(F)(F)F)cc3)CCCN(C(=O)c3cnccc3C(F)(F)F)[C@@H]2CCO)CC1 , and I need its recorded IC50.
Found: 530
